tested on: Haloperidol-Induced Catalepsy; assay: Effect on haloperidol-induced catalepsy; type: in vivo, mice; settings: Mus musculus, 1 h; ten mice at each dose, effective = catalepsy score 3 or less, Probit analysis; oral; read-out: ED₅₀
ASSAY METRIC: ED50

CCn1c(=O)c2c(nc(/C=C/c3ccc(OC)cc3OC)n2C)n(CC)c1=O ... 1.7 mg/kg
CCn1c(=O)c2c(nc(/C=C/c3cc(OC)c4c(c3)OCO4)n2C)n(CC)c1=O ... 0.01 mg/kg
COc1ccc(/C=C/c2nc3c(c(=O)n(C)c(=O)n3C)n2C)c(OC)c1OC [Compound 20, (E)-8-(2,3,4-Trimethoxystyryl)caffeine] ... 0.35 mg/kg
CCn1c(=O)c2c(nc(/C=C/c3cc(C)c(OC)cc3C)n2C)n(CC)c1=O ... 2.7 mg/kg

###

Recorded MLD values for a group of compounds are listed next.
test system: dd-strain male mice; assay: Acute toxicity test (minimum lethal dose, oral); type: in vivo; details: oral administration, three mice per group, mortality seven days after administration
ASSAY METRIC: MLD

CCn1c(=O)c2[nH]c(/C=C/c3ccccc3F)nc2n(CC)c1=O ... > 100 mg/kg
CCn1c(=O)c2[nH]c(/C=C/c3cccc(C(F)(F)F)c3)nc2n(CC)c1=O ... > 100 mg/kg
CCn1c(=O)c2[nH]c(/C=C/c3ccc(OCOC)cc3)nc2n(CC)c1=O ... > 100 mg/kg
CCn1c(=O)c2c(nc(/C=C/c3ccc(OC)c(OC)c3)n2C)n(CC)c1=O ... > 300 mg/kg
CCn1c(=O)c2c(nc(/C=C/c3ccc(OC)c(OC)c3Cl)n2C)n(CC)c1=O ... > 300 mg/kg
CCn1c(=O)c2[nH]c(/C=C/c3cc(OC)cc(OC)c3)nc2n(CC)c1=O ... > 100 mg/kg
CCn1c(=O)c2c(nc(/C=C/c3cc(F)cc(F)c3)n2C)n(CC)c1=O ... > 100 mg/kg
COc1cccc(/C=C/c2nc3c(c(=O)n(C)c(=O)n3C)n2C)c1OC [Compound 26, (E)-8-(2,3-Dimethoxystyryl)caffeine] ... > 300 mg/kg
CCn1c(=O)c2[nH]c(/C=C/c3cc(OC)c(OC)cc3[N+](=O)[O-])nc2n(CC)c1=O ... > 100 mg/kg
CCn1c(=O)c2c(nc(/C=C/c3cc4c(cc3Br)OCO4)n2C)n(CC)c1=O ... > 100 mg/kg
CCn1c(=O)c2c(nc(/C=C/c3ccc(OCCCCN)cc3)n2C)n(CC)c1=O ... > 100 mg/kg
CCn1c(=O)c2c(nc(/C=C/c3cc(OC)c(OC)cc3[N+](=O)[O-])n2C)n(CC)c1=O ... > 300 mg/kg
CCn1c(=O)c2[nH]c(/C=C/c3cccc(OC)c3[N+](=O)[O-])nc2n(CC)c1=O ... > 300 mg/kg
CCn1c(=O)c2[nH]c(/C=C/c3cccc(Oc4ccccc4)c3)nc2n(CC)c1=O ... > 100 mg/kg
CCn1c(=O)c2c(nc(/C=C/c3ccc(OCC(=O)O)cc3)n2C)n(CC)c1=O ... > 100 mg/kg
CCOc1ccc(/C=C/c2nc3c([nH]2)c(=O)n(CC)c(=O)n3CC)cc1 ... > 100 mg/kg
